Target: T1, cynomolgus monkey CD3 on cynomolgus monkey PBMC or T cell line HSC-F (cynomolgus monkey, UniProt Q95LI5 22-198)
T1 construct: whole, on cells; Native CD3 complex on monkey T cells; also called cynomolgus monkey CD3 (PBMC); cynomolgus monkey CD3 antigen
T1 sequence (Q95LI5 22-198): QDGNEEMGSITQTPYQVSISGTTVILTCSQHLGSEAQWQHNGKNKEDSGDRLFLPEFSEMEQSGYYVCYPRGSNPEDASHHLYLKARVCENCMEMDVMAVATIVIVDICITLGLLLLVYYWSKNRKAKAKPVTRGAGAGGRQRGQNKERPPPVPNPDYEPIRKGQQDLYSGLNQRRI
Assay: flow cytometry on cynomolgus monkey PBMC
assayEndpoint: binding result

INSERT INTO measurements (binder, val) VALUES
  ('C3E-7094 (CDR modified humanized anti-CD3 scFv) (scFv, C3E-7079 with serine for aspartic acid at position 52 of the VL; the change is already in the entry) scFv: GEVQLVESGGGLVQPGGSLRLSCAASGVTFNYYGMSWIRQAPGKGLEWVASITSSGGRIYYPDSVKGRFTISRENTQKTLYLQMNSLRAEDTAVYYCTLDGRDGWVAYWGQGTLVTVSSGGGGSGGGGSGGGGSNFMLTQPHSVSESPGKTVTISCKRNTGNIGSNYVNWYQQHEGSSPTTIIYRSDKRPDGVSDRFSGSIDRSSKSASLTISNLKTEDEADYFCQSYSSGFIFGGGTKLTVLGAAAGAGGDYKDDDDKGAAAHHHHHH', 'binds');
